FYI, the data here is from patent US6083974A.

- target-entity: PGD2 receptor (Homo sapiens)
- Construct: A suspension adjusted to contain platelet at a final concentration of; endogenous in cells; host or cells: washed human platelets from peripheral blood of a healthy volunteer
- Sequence (Q13258 1-359): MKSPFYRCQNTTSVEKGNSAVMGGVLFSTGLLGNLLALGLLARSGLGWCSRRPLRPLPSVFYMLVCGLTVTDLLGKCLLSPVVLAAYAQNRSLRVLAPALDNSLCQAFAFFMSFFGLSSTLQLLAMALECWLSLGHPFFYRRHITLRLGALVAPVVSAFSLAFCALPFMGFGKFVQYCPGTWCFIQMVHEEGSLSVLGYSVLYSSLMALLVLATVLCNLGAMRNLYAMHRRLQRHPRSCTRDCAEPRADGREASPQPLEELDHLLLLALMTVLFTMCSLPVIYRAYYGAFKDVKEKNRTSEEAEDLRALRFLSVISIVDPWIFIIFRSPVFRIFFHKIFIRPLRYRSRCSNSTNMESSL
- procedure-text: Binding to PGD2 Receptor (inhibition of [3H]PGD2 binding to human platelet membrane fraction)
- conditions-used: human platelet membrane fraction (0.1 mg), 5 nM [3H]PGD2, pH 7.4, 4° C., 90 min
Assign IC50 to each entry below.
Answer with a number only, understood to be in nM.

// field: IC50; key: CC1(C)[C@H]2C[C@H](C/C=C\CCCC(=O)O)[C@@H](NC(=O)c3csc4ccc(O)cc34)[C@@H]1C2 [IA-a-5] ; value = 0.4

// field: IC50; key: CC(=O)Oc1ccc2scc(C(=O)N[C@@H]3[C@@H](C/C=C\CCCC(=O)O)C[C@H]4C[C@@H]3C4(C)C)c2c1 [IA-a-9] ; value = 6.5

// field: IC50; key: CC1(C)[C@H]2C[C@H](C/C=C\CCCC(=O)O)[C@@H](NC(=O)c3csc4ccc(Br)cc34)[C@@H]1C2 [IA-a-2] ; value = 3.3

// field: IC50; key: CC1(C)[C@H]2C[C@H](C/C=C\CCCC(=O)O)[C@@H](NC(=O)c3csc4cc(O)ccc34)[C@@H]1C2 [IA-a-7] ; value = 1.3

###

- target-entity: PGD2 receptor (Homo sapiens, UniProt Q13258)
- Construct: A suspension adjusted to contain platelet at a final concentration of; endogenous in cells; host or cells: washed human platelets from peripheral blood of a healthy volunteer
- procedure-text: Antagonistic activity against PGD2 receptor using human platelet (inhibition of PGD2-induced cAMP increase)
- Assay type: cell-based
- conditions-used: human washed platelets, 0.1 μM PGD2, 3-isobutyl-1-methylxanthine 0.5 mM, 37° C.; read-out: IC50, inhibition of cAMP increased by PGD2
assay-readout: IC50 (µM)
Answer with a number only, understood to be in µM.

// field: IC50; key: CC1(C)[C@H]2C[C@H](C/C=C\CCCC(=O)O)[C@@H](NC(=O)c3csc4ccc(O)cc34)[C@@H]1C2 ; value = 0.0013

// field: IC50; key: CC1(C)[C@H]2C[C@@H](C/C=C\CCCC(=O)O)[C@@H](NC(=O)c3csc4ccc(O)cc34)[C@@H]1C2 ; value = 0.055

// field: IC50; key: CC1(C)[C@H]2C[C@H](C/C=C/CCCC(=O)O)[C@@H](NC(=O)c3csc4ccc(O)cc34)[C@@H]1C2 ; value = 0.028

// field: IC50; key: CC1(C)[C@H]2C[C@@H](C/C=C/CCCC(=O)O)[C@@H](NC(=O)c3csc4ccc(O)cc34)[C@@H]1C2 ; value = 0.061

// field: IC50; key: CC1(C)[C@H]2C[C@H](NC(=O)c3csc4ccccc34)[C@@H](C/C=C\CCCC(=O)O)[C@@H]1C2 ; value = 0.041

// field: IC50; key: CC1(C)[C@H]2C[C@@H](NC(=O)c3csc4ccc(O)cc34)[C@H](C/C=C\CCCC(=O)O)[C@@H]1C2 ; value = 0.057

// field: IC50; key: CC(=O)Oc1ccc2scc(C(=O)N[C@@H]3[C@@H](C/C=C\CCCC(=O)O)C[C@H]4C[C@@H]3C4(C)C)c2c1 ; value = 0.00021

// field: IC50; key: CC1(C)[C@H]2C[C@H](C/C=C\CCCC(=O)O)[C@@H](NC(=O)c3csc4cc(O)ccc34)[C@@H]1C2 ; value = 0.0028
